Reported pIC50 by item:
TARGET DESC: phosphorylated EGFR (pEGFR) (Homo sapiens)
Construct: performed to measure phosphorylated EGFR levels using A431 cells (10% FBS); endogenous in cells
MEASUREMENT PROTOCOL: Detection of phosphorylated EGFR (pEGFR) by AlphaLISA in EGF-stimulated A431 cells
MEASUREMENT PARAMETERS: A431 cells (10% FBS), 4 hours incubation, EGF 30 ng/mL for 10 minutes
Protocol: Enzyme-linked immunosorbent assays (ELISA) were performed to measure phosphorylated EGFR levels using A431 cells (10% FBS). A431 (1.0*10^4 cells/40 μl/well) cells were seeded in 384 well. […] Acceptor mix (PerkinElmer, cat #ALSU-PEGFR-A50K) was prepared just before use and 5 μL was dispensed to all the wells, followed by a 1.5-2 h incubation at room temperature in dark. […] Plates were read on the Envision (PerkinElmer) using standard AlphaLISA settings. […]
Schema: pIC50 number; meaning minus log10 of the concentration expressed in molar units.

Example cases with answers are listed next.
[
  {
    "SMILES STR": "CN(C)C/C=C/C(=O)N1CCN2c3ncc4ncnc(Nc5cc(F)c(Oc6ccn7ncnc7c6)cc5F)c4c3OC[C@H]2C1",
    "TARGET DESC": "phosphorylated EGFR (pEGFR) (Homo sapiens)",
    "pIC50": 5.32
  },
  {
    "SMILES STR": "Cc1cc(Nc2ncnc3ccc4c(c23)OC[C@H]2CN4CCN2C(=O)/C=C/CN(C)C)ccc1Oc1ccn2ncnc2c1",
    "TARGET DESC": "phosphorylated EGFR (pEGFR) (Homo sapiens)",
    "pIC50": 6.72
  },
  {
    "SMILES STR": "Cc1cc(Nc2ncnc3ccc4c(c23)OC[C@H]2CN4CCN2C(=O)/C=C/[C@@H](C)N(C)C)ccc1Oc1ccn2ncnc2c1",
    "TARGET DESC": "phosphorylated EGFR (pEGFR) (Homo sapiens)",
    "pIC50": 5.55
  }
]

Could you now look at the following compound, please?
[Q] Specify reported pIC50 for the compound shown: CN(C)C/C=C/C(=O)N1CCN2C[C@@H]1COc1c2ccc2ncnc(Nc3ccc(Oc4ccn5ncnc5c4)c(F)c3)c12
[A] 6.42

###

TARGET DESC: phosphorylated EGFR (pEGFR) (Homo sapiens)
Construct: performed to measure phosphorylated EGFR levels using A431 cells (10% FBS); endogenous in cells
MEASUREMENT PROTOCOL: Detection of phosphorylated EGFR (pEGFR) by AlphaLISA in EGF-stimulated A431 cells
MEASUREMENT PARAMETERS: A431 cells (10% FBS), 4 hours incubation, EGF 30 ng/mL for 10 minutes
Reported IC50 by item:

Example cases with answers are listed next.
[
  {
    "MOLECULE": "Cc1cc(Nc2ncnc3ccc4c(c23)OC[C@H]2CN4CCN2C(=O)/C=C/[C@H](C)N(C)C)ccc1Oc1ccn2ncnc2c1 [Compound 89]",
    "IC50": "> 10 µM"
  },
  {
    "MOLECULE": "Cc1cc(Nc2ncnc3cc4c(cc23)N2CCN(C(=O)/C=C/CN(C)C)C[C@H]2CO4)ccc1Oc1ccn2ncnc2c1 [Compound 9]",
    "IC50": "1.68 µM"
  },
  {
    "MOLECULE": "CN(C)C/C=C/C(=O)N1CCN2c3ccc4ncnc(Nc5ccc(Oc6ccn7ncnc7c6)cc5F)c4c3OC[C@H]2C1 [Compound 119]",
    "IC50": "1.95 µM"
  },
  {
    "MOLECULE": "CC(=O)N1CCN2c3ccc4ncnc(Nc5ccc(Oc6ccn7ncnc7c6)c(C)c5)c4c3OC[C@H]2C1 [Compound 109]",
    "IC50": "> 10 µM"
  }
]

[Q] Specify reported IC50 for the molecule shown: Cc1cc(Nc2ncnc3ccc4c(c23)OC[C@@H]2CNCCN42)ccc1Oc1ccc2c(c1)ncn2C [Compound 47]
[A] > 10 µM

[Q] Specify reported IC50 for the molecule shown: Cc1ccc(Oc2ccc(Nc3ncnc4ccc5c(c34)OC[C@H]3CN5CCN3C(=O)/C=C/CN(C)C)cc2C)cn1 [Compound 84]
[A] 0.0601 µM

[Q] Specify reported IC50 for the molecule shown: Cc1cc(Nc2ncnc3cnc4c(c23)O[C@@H]2CCNC[C@H]2N4C)ccc1Oc1ccc2c(c1)ncn2C [Compound 135]
[A] > 10 µM

###

TARGET DESC: phosphorylated ERBB2 (pERBB2) (Homo sapiens)
Construct: endogenous in cells
Sequence (P04626 23-1255): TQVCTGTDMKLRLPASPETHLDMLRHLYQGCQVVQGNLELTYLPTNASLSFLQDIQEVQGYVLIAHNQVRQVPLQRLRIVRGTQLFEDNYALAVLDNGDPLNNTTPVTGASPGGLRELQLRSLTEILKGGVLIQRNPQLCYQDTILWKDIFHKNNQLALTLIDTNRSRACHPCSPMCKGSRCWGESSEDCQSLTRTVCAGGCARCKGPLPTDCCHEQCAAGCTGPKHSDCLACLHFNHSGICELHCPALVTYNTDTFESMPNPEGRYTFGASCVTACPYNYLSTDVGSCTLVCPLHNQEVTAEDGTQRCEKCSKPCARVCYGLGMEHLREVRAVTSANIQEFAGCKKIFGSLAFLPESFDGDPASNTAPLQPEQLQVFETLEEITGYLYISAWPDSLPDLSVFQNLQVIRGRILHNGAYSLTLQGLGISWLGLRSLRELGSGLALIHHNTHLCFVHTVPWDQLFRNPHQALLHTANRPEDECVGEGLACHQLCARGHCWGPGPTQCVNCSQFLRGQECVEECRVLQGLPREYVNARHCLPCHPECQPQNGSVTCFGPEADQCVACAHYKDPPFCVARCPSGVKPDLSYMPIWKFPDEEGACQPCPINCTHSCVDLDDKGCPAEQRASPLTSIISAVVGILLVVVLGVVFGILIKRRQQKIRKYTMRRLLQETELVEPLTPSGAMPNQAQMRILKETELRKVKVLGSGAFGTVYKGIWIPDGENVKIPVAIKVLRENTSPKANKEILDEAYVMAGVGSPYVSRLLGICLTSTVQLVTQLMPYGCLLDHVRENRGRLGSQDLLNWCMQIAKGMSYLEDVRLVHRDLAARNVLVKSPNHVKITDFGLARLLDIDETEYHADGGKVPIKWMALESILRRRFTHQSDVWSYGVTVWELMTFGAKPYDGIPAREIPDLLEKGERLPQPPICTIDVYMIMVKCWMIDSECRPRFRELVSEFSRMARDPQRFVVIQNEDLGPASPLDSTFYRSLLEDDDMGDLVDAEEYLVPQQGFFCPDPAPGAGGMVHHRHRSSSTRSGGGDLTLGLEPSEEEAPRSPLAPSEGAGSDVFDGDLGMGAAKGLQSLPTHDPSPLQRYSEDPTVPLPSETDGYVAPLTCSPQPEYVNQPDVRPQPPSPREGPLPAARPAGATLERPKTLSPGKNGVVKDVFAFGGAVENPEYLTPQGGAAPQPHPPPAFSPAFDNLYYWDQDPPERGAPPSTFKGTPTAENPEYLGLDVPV
MEASUREMENT PROTOCOL: Detection of phosphorylated ERBB2 (pERBB2) by ELISA in BT-474 cells
MEASUREMENT PARAMETERS: four hour incubation
pIC50: −log10 of the molar value.
Respond with 1.0 for pIC50 values of 7 and above, 0.0 for values below.

Check out these entries, answers already filled in.
[
  {
    "SMILES STR": "Cc1cc(Nc2ncnc3ccc4c(c23)OC[C@@H]2CN4CCN2)ccc1Oc1ccn2ncnc2c1",
    "CATEGORY LABEL": 0.0
  },
  {
    "SMILES STR": "Cc1cc(Nc2ncnc3cnc4c(c23)O[C@@H]2CCNC[C@H]2N4C)ccc1Oc1ccc2c(c1)ncn2C",
    "CATEGORY LABEL": 1.0
  }
]

[Q] Assess whether reported pIC50 for CN(C)C/C=C/C(=O)N1CCN2c3ccc4ncnc(Nc5ccc(Oc6ccn7ncnc7c6)cc5F)c4c3OC[C@@H]2C1 sits at 7 or higher.
[A] 1.0

[Q] Assess whether reported pIC50 for Cc1cc(Nc2ncnc3cnc4c(c23)OC[C@H]2CN(C(=O)/C=C/CN(C)C)CCN42)ccc1Oc1ccn2ncnc2c1 sits at 7 or higher.
[A] 1.0

###

Reported IC50 by item:
TARGET DESC: phosphorylated EGFR (pEGFR) (Homo sapiens, UniProt P00533)
Construct: performed to measure phosphorylated EGFR levels using A431 cells (10% FBS); endogenous in cells
Sequence (P00533 25-1210): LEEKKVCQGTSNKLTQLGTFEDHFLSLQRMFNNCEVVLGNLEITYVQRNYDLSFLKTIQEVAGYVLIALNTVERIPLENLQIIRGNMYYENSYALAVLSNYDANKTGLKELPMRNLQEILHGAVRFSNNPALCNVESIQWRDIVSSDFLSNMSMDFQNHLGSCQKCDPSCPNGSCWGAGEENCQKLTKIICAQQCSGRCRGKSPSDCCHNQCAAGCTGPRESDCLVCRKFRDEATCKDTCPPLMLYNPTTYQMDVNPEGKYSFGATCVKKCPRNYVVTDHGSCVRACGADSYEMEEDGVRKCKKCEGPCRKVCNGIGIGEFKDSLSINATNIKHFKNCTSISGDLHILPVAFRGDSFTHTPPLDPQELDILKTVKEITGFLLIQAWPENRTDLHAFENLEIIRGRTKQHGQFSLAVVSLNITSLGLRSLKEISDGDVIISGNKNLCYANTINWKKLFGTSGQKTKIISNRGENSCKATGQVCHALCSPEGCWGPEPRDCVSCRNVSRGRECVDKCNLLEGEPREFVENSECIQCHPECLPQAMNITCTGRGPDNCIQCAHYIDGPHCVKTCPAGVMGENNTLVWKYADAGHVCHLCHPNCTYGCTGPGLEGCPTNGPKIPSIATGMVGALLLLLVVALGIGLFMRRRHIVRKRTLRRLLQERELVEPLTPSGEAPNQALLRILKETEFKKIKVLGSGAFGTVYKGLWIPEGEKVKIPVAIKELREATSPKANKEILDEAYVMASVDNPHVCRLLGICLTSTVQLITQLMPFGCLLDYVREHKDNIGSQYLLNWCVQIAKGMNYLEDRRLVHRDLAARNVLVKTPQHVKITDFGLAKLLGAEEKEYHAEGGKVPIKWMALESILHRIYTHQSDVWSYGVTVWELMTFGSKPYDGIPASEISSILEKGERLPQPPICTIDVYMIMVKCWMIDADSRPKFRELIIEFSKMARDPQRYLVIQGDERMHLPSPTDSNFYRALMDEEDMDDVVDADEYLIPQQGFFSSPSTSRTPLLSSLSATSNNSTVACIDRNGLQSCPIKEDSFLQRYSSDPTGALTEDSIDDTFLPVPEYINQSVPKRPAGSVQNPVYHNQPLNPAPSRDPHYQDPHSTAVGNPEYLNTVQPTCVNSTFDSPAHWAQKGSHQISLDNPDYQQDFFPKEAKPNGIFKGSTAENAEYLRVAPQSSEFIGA
MEASUREMENT PROTOCOL: Detection of phosphorylated EGFR (pEGFR) by AlphaLISA in EGF-stimulated A431 cells
MEASUREMENT PARAMETERS: A431 cells (10% FBS), 4 hours incubation, EGF 30 ng/mL for 10 minutes
Protocol: Enzyme-linked immunosorbent assays (ELISA) were performed to measure phosphorylated EGFR levels using A431 cells (10% FBS). A431 (1.0*10^4 cells/40 μl/well) cells were seeded in 384 well. […] Acceptor mix (PerkinElmer, cat #ALSU-PEGFR-A50K) was prepared just before use and 5 μL was dispensed to all the wells, followed by a 1.5-2 h incubation at room temperature in dark. […] Plates were read on the Envision (PerkinElmer) using standard AlphaLISA settings. […]

Example cases with answers are listed next.
[
  {
    "SMILES STR": "C=CC(=O)N1CCN2C[C@H]1COc1c2ccc2ncnc(Nc3ccc(Oc4ccc5c(c4)ncn5C)c(C)c3)c12",
    "TARGET DESC": "phosphorylated EGFR (pEGFR) (Homo sapiens, UniProt P00533)",
    "IC50": "> 10 µM"
  },
  {
    "SMILES STR": "COCCN1CCN2c3ccc4ncnc(Nc5ccc(Oc6ccn7ncnc7c6)c(C)c5)c4c3OC[C@H]2C1",
    "TARGET DESC": "phosphorylated EGFR (pEGFR) (Homo sapiens, UniProt P00533)",
    "IC50": "> 10 µM"
  },
  {
    "SMILES STR": "C=CC(=O)N1CCN2c3ccc4ncnc(Nc5ccc(Oc6ccc7c(c6)ncn7C)c(C)c5)c4c3OC[C@H]2C1",
    "TARGET DESC": "phosphorylated EGFR (pEGFR) (Homo sapiens, UniProt P00533)",
    "IC50": "0.15 µM"
  }
]

Could you now look at the following compound, please?
[Q] Specify reported IC50 for the compound shown: CC#CC(=O)N1CCN2c3nc4c(Nc5ccc(Oc6ccn7ncnc7c6)c(C)c5)ncnc4cc3OC[C@@H]2C1
[A] 4.77 µM

###

TARGET DESC: Ba/F3 ERBB2 YVMA (Homo sapiens, UniProt P04626, DUP772-775, cells depend on it)
Sequence (P04626 with tags, fused parts or gaps DUP772-775): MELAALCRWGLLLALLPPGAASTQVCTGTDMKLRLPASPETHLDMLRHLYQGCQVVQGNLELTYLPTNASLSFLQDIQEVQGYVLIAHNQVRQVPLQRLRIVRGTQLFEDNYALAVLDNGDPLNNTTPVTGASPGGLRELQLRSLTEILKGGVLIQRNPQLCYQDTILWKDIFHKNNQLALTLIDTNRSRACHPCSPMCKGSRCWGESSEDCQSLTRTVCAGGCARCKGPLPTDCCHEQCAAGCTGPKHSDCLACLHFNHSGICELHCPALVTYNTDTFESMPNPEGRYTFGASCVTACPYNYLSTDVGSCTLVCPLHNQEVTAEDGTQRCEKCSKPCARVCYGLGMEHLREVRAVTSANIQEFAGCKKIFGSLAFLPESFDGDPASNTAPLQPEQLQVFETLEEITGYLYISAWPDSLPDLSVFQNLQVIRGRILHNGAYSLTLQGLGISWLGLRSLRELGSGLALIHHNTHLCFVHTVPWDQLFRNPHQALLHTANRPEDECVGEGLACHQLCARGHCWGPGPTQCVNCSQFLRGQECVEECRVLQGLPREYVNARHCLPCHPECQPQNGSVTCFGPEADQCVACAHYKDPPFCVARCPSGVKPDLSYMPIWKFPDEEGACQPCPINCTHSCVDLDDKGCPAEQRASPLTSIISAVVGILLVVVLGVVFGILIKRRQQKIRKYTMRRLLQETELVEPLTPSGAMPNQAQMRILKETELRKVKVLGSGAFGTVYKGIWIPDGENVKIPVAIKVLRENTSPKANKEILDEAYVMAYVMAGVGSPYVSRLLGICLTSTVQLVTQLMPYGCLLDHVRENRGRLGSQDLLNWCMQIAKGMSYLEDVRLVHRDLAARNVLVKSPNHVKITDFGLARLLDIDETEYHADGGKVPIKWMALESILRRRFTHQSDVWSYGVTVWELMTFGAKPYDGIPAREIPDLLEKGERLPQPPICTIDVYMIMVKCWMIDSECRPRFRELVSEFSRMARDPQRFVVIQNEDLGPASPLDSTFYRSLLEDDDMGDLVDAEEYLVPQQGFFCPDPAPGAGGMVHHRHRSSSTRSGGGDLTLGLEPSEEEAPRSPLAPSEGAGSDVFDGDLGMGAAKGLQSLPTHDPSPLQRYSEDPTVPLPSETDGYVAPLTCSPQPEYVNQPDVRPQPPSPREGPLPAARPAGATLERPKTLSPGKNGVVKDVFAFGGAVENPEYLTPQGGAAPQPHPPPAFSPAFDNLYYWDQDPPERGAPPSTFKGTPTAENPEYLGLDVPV
MEASUREMENT PROTOCOL: Cell viability assay (CellTiter Glo), Ba/F3 cells engineered to express ERBB2 YVMA
Type: cell-based, mouse
MEASUREMENT PARAMETERS: Ba/F3 cells expressing human ERBB2 YVMA mutant, 72 hours, read-out: Ba/F3 ERBB2 YVMA, IC50
MEASURED METRIC: GI50 (nM)
Give the value, in units of nM, as a plain number.

[
  {
    "COMPOUND": "Cc1cc(Nc2ncnc3cc4c(cc23)N2CCN(C(=O)/C=C/CN(C)C)C[C@@H]2CO4)ccc1Oc1ccn2ncnc2c1 [Compound 10]",
    "READOUT VALUE": 84.9
  }
]

Could you now look at the following compound, please?
[Q] Specify reported GI50 for the compound shown: CC#CC(=O)N1CCN2c3cc4c(Nc5ccc(Oc6ccn7ncnc7c6)c(C)c5)ncnc4cc3OC[C@@H]2C1 [Compound 13]
[A] 6.24
